Assayed System: Torsin-1A (Homo sapiens) (UniProt O14656)
Sequence (O14656 whole entry, looked up): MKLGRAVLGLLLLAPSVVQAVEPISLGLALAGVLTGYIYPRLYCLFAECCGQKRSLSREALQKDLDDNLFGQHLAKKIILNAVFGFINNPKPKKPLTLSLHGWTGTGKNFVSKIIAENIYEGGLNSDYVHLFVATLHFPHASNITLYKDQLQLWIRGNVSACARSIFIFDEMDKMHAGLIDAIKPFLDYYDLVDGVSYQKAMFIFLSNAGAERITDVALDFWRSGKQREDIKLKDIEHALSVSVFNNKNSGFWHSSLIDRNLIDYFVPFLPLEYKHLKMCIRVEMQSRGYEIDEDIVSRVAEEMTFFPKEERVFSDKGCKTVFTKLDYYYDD
Test Description: torsin A mutant lysate binding on microarrays – cell lysate, small-molecule microarray, COS7 lysate, 635/667 nm fluorescence, primary screen (AID 1150);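 also: score pools 667 nm emission and signal to noise measuring lysate protein binding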
Condition Set: COS7 hTOR1A mutant lysate, 635 nm fluorescence, higher = more signal
Measured Attribute: composite z-score
Give a plain numeric answer without units written out.

INSERT INTO assay_data (compound, measured_attribute, result_number) VALUES
  ('O=C(NCCN1CCOCC1)[C@@H]1c2ccccc2C(=O)N(Cc2ccc(OC(F)(F)F)cc2)[C@H]1c1ccc(CO)cc1', 'composite z-score', 0.459),
  ('CCCNC(=O)[C@@]1(Sc2ccc(C)cc2)CC(=O)N(Cc2ccccc2Cl)[C@@H]1c1ccc(CO)cc1I', 'composite z-score', -1.42),
  ('CC1CC/C=C\[C@H]2OC34C=CCN(CCN5CCOCC5)C(=O)[C@H]3N(CCCO)C(=O)[C@@H]4C2C(=O)O1 (stereo not given in full)', 'composite z-score', 0.0876),
  ('O=C1C[C@@](C(=O)O)(c2ccc([N+](=O)[O-])cc2)[C@@H](c2ccc(CO)cc2)N1C1CCCCC1', 'composite z-score', 0.371),
  ('CC(=O)c1ccc(C(O)C2C=CC3C(=O)N(c4ccccc4)C(=O)C3N2Nc2ccc(C(C)C)cc2)cc1 (stereo not given)', 'composite z-score', 0.135),
  ('C[C@]1(C(=O)O)c2ccccc2C(=O)N(Cc2cc(F)cc(C(F)(F)F)c2)[C@H]1c1ccc(CO)cc1', 'composite z-score', 0.154),
  ('CCOC(=O)c1cn(C[C@H](Cc2ccccc2)NC(=O)N[C@H](CO)CCc2oc(C(C)=O)c(C(=O)OC)c2C(=O)OC)nn1', 'composite z-score', 0.692),
  ('COC(=O)[C@@]1(Cc2ccc(OC)cc2)[C@H]2c3cc(C(=O)N4CCCC4)n(CCn4cc([N+](=O)[O-])nc4C)c3C[C@H]2CN1C(=O)c1ccccc1', 'composite z-score', 1.75),
  ('O=C1C2C=CC(C(O)c3ccc([N+](=O)[O-])cc3)N(Nc3ccccc3F)C2C(=O)N1c1ccccc1 (stereo not given)', 'composite z-score', 0.52),
  ('CC(C)C[C@H]1NC(=O)C([C@@H](C)OCc2ccccc2)NC(=O)[C@@]23C(=O)N[C@@H](Cc4ccccc4)C2[C@H](C)[C@@]2(C)O[C@H]2C3/C=C/C/C=C\CNC1=O (stereo not given in full)', 'composite z-score', 0.519);

Return reported composite z-score; argument: NC(=O)N1C(=O)C2C(C1=O)C1C=C(CCCO)C2C(c2ccc(CN3CCCC3)cc2)N1Cc1sc2ccccc2c1Cl (stereo not given) 0.823

###

Below, each entry is listed with its recorded composite z-score.
Assayed System: Pro-neuregulin-1, membrane-bound isoform (Homo sapiens) (UniProt Q02297)
Sequence (Q02297 whole entry, looked up, canonical isoform): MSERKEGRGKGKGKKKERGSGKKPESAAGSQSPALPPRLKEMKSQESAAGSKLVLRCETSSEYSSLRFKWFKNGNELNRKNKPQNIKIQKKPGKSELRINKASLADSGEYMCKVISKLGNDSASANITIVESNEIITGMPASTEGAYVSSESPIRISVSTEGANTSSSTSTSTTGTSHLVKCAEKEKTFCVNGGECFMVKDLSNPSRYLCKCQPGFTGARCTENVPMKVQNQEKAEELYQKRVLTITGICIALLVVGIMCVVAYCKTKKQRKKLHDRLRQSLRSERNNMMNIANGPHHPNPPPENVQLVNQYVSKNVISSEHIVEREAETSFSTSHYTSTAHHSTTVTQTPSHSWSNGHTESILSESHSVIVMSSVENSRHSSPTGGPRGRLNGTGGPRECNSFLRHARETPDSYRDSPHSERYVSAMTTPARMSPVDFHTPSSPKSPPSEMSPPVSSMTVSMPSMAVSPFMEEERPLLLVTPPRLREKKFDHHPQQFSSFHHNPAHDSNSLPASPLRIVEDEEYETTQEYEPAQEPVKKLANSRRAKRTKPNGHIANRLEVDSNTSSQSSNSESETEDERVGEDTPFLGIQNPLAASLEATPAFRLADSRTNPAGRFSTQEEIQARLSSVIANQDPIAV
Test Description: small molecules binding neuregulin-1 protein – biochemical, small-molecule microarray, fluorescence 635/667, psychiatric disease protein project, primary screen (AID 1075);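 also: score combines 667 nm spot fluorescence with signal to noise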
Condition Set: NRG1 binding, 635 nm fluorescence, higher = more signal

Study these solved cases before continuing.
INSERT INTO measurements (compound, assayed_system, result) VALUES
  ('CCOc1cc(C(O)C2C=CC3C(=O)N(c4ccccc4)C(=O)C3N2Nc2ccccc2F)ccc1O (stereo not given)', 'Pro-neuregulin-1, membrane-bound isoform (Homo sapiens) (UniProt Q02297)', 2.06),
  ('CC(C)(C)N1CC=CC23O[C@@H]4/C=C\CCCOC(=O)C4[C@H]2C(=O)N(CCCCCO)[C@@H]3C1=O (stereo not given in full)', 'Pro-neuregulin-1, membrane-bound isoform (Homo sapiens) (UniProt Q02297)', -0.229),
  ('Cc1ccc(S[C@]2(C(=O)NCc3ccccc3)CC(=O)N(Cc3ccccc3C(F)(F)F)[C@@H]2c2ccc(CO)cc2)cc1', 'Pro-neuregulin-1, membrane-bound isoform (Homo sapiens) (UniProt Q02297)', 0.642);

Reported composite z-score for Pro-neuregulin-1, membrane-bound isoform (Homo sapiens) (UniProt Q02297), given C=CCC(OC(C)=O)[C@@H]1[C@@H](N(Cc2cccc3ccccc23)C(=O)c2ccc(-c3ccccc3)cc2)c2cc(OCCCO)ccc2N1C(=O)Cc1ccc2ccccc2c1 (stereo not given in full) ? 0.022

Reported composite z-score for Pro-neuregulin-1, membrane-bound isoform (Homo sapiens) (UniProt Q02297), given CC=CC(O)C1C=CC2C(=O)NC(=O)C2N1Nc1ccc(Cl)cc1Cl (stereo not given) ? 1.01

Reported composite z-score for Pro-neuregulin-1, membrane-bound isoform (Homo sapiens) (UniProt Q02297), given `COc1ccccc1CN1C(=O)c2ccccc2[C@](Cc2ccccc2I)(C(=O)NCC(C)C)[C@@H]1c1ccc(CO)cc1` ? 1.2

Reported composite z-score for Pro-neuregulin-1, membrane-bound isoform (Homo sapiens) (UniProt Q02297), given `COc1ccc([Si](C)(C)[C@@H]2[C@@H](CC(=O)N(CCO)Cc3ccccc3)O[C@]3(C(=O)N(Cc4ccc(N5C(=O)c6cccc7cccc5c67)cc4)c4ccccc43)[C@H]2C)cc1` ? 0.933

Reported composite z-score for Pro-neuregulin-1, membrane-bound isoform (Homo sapiens) (UniProt Q02297), given `CCOC(=O)C[C@H]1[C@H](OC(=O)c2cc3ccccc3oc2=O)[C@@H](NC(=O)CC(C)C)c2cc(OCCCO)ccc2N1C(=O)Cc1ccc(OC)cc1` ? 0.324
